All values here come from ChEMBL document CHEMBL1201862.

Measured GI50 accompanies every entry in the list below.
system: CCRF-CEM; assay: NCI tumour cell line growth inhibition, 48 h
Active and inactive are the calls of the source. No stated cut-off is given here; in the data, active = GI50 up to about 1.1 µM and inactive = higher.

CCOC(=O)[C@@]12C(C)=CC(=O)O[C@]1(C)C1C(=O)NC(=O)C12 (stereo not given in full); > 100 µM (inactive)
CC[C@]1(Cc2ccc(OC)c(OC)c2)C=[N+]([O-])O[C@H](OC2CCCC2(c2ccccc2)c2ccccc2)[C@@H]1OC(=O)C(C)(C)C (stereo not given in full); 2.6 µM (inactive)
Cc1c(C#N)c(N)[nH]c(=S)c1C#N; > 100 µM (inactive)
COc1ccc(C2C3=CONC3CC3CCCCC32)cc1 (stereo not given); 42.1 µM (inactive)
CS(=O)(=O)OCCCOS(C)(=O)=O; > 100 µM (inactive)

*Q* Look up GI50 for this compound: Cn1c(N2CCCC2)c(C=O)c(=O)n(C)c1=O
*A* > 100 µM (inactive)

*Q* Look up GI50 for this compound: CCCc1cc2c(cc1O)CC[C@@H]1[C@@H]2CC[C@]2(C)[C@@H](O)CC[C@@H]12
*A* 5.41 µM (inactive)

*Q* Look up GI50 for this compound: CC(=O)OCC1OC(SC2=NC(=O)/C(=C/c3ccccc3)S2)C(OC(C)=O)C(OC(C)=O)C1OC(C)=O (stereo not given)
*A* 28.4 µM (inactive)

*Q* Look up GI50 for this compound: COc1cc(O)c(C(=O)/C=C/c2ccc(OC)c(OCc3ccccc3)c2)c(OC)c1
*A* 3.92 µM (inactive)

*Q* Look up GI50 for this compound: COc1cc2c(c(OC)c1OC)CCNC2C1=C(O)COC1=O (stereo not given)
*A* > 100 µM (inactive)

====

test system: SN12C; assay: NCI tumour cell line growth inhibition, 48 h
Calls of active or inactive are those of the source. Rule as the data show it: active = GI50 up to about 1.1 µM and inactive = higher.
reported.metric: GI50

// below: answered compounds
C=CCSC(C)=O; > 100 µM (inactive)
C=C(C)[C@H]1C=C[C@@H](OC(=O)c2cccnc2)[C@@]23CO[C@@](C)([C@H](OC(=O)c4cccnc4)[C@@]4(OC(C)=O)C[C@H](C)[C@H](OCCC)[C@@H]4[C@H]2OC(C)=O)[C@H]13; > 15 µM (inactive)
Cc1c2cccc-2c2cc(O)c3ccccc3c2n1-c1ccc(N(C)C)cc1; 16.1 µM (inactive)

*Q* Look up GI50 for this compound: Nc1nc(SCc2ccccn2)c2ncn(C3CCCC3)c2n1
*A* > 100 µM (inactive)

*Q* Look up GI50 for this compound: CC(=O)c1ccc2c(c1)oc(=O)n2CCN1CCCCC1
*A* > 100 µM (inactive)

*Q* Look up GI50 for this compound: CCOC(=O)[C@]12C(=C(c3ccccc3)O[C@H]3C=CCC[C@H]31)C(=O)C(=O)N2c1ccccc1
*A* > 100 µM (inactive)

====

system: ACHN; assay: NCI tumour cell line growth inhibition, 48 h
Calls of active or inactive are those of the source. Rule as the data show it: active = GI50 up to about 1.1 µM and inactive = higher.
reported.metric: GI50

// below: answered molecules
c1ccc(P(=C2c3ccccc3-c3ccccc32)(c2ccccc2)c2ccccc2)cc1; 2.66 µM (inactive)
CC(C)OCN1COCN/C1=N/C#N; > 100 µM (inactive)
O=C1CCCCCC1CC(Sc1ccccc1)Sc1ccccc1 (stereo not given); > 100 µM (inactive)
COC(=O)CCC(NC(=O)OC(C)(C)C)C(=O)NC(Cc1ccc(NC(=O)CCCC(C)=O)cc1)C(=O)NC(CCC(=O)OC)C(=O)OC (stereo not given); > 100 µM (inactive)

*Q* Look up GI50 for this molecule: [N-]=[N+]=NCN1C(=O)C2C3C=CC(C2C1=O)C1C2C(=O)N(CN=[N+]=[N-])C(=O)C2C31 (stereo not given)
*A* > 100 µM (inactive)

====

tested on: HCT-15
Measured GI50 accompanies every entry in the list below.

O=C1/C(=N\O)C2CCC1C2 (centres undefined); > 100 µM
C[N+](C)(C)CC1CCCc2ccccc2C1=O (centres undefined); 5.98 µM
Cn1c(N2CCCC2)c(C=O)c(=O)n(C)c1=O; > 100 µM
CCN1C/C(=C\c2ccc(Cl)cc2)c2nc(N)c(C#N)c(-c3ccc(Cl)cc3)c2C1; > 100 µM
NC(=O)NC(=O)CCC(NS(=O)(=O)c1ccccc1)C(=O)NC(N)=O (centres undefined); > 100 µM
CCOC(=O)CCc1c(C)c2c(O)cc(O)cc2oc1=O; 99.1 µM
O=C1C2=C(SCCS2)C(=O)c2c(Sc3ccc(Cl)cc3)c(Sc3ccc(Cl)cc3)c(Sc3ccc(Cl)cc3)c(Sc3ccc(Cl)cc3)c21; > 100 µM
C=CCN(C)CN(C)c1nc(N(C)C)nc(N(C)C)n1; 34.3 µM

*Q* Give the reported GI50 for C=CCn1c2ccccc2[n+]2cc([N+](=O)[O-])ccc12 (system: HCT-15).
*A* 34.5 µM

*Q* Give the reported GI50 for N#C/C(=C\c1ccc(Cl)cc1)c1nc2ccccc2c(=O)[nH]1 (system: HCT-15).
*A* > 100 µM

*Q* Give the reported GI50 for O=c1c2cc([N+](=O)[O-])ccc2oc2nc3n(c(=O)c12)CCCS3 (system: HCT-15).
*A* > 100 µM

*Q* Give the reported GI50 for C=CSCCC(N)C(=O)O (centres undefined) (system: HCT-15).
*A* > 100 µM

*Q* Give the reported GI50 for Cc1[nH]c(-c2ccccc2)c2nc(N(C)C)oc(=O)c12 (system: HCT-15).
*A* > 100 µM

*Q* Give the reported GI50 for CS(=O)(=O)OCCCOS(C)(=O)=O (system: HCT-15).
*A* > 100 µM

====

test system: A549; assay: NCI tumour cell line growth inhibition, 48 h
Calls of active or inactive are those of the source. Cut-off read from the data, not from the text of the source: active = GI50 up to about 1.1 µM and inactive = higher.
The categories you may choose from are active, inactive

COC(=O)C(C(=O)C(=O)Nc1ccc([N+](=O)[O-])cc1)c1nc2cc(C)c(C)cc2nc1O (stereo not given); inactive
O=C1OS2(OC(=O)c3cccc4cccc2c34)c2ccccc21 (stereo not given); inactive
COc1ccc(CN2CCC/C=C/CC(Cl)(Cl)C2=O)cc1; inactive
NC(=O)c1cc2ccccc2o/c1=N/c1ccccc1; inactive
CN(C)CCNc1ccc2ncn3c4ccc(O)cc4c(=O)c1c23; active
COc1cc(-c2oc3c(OC)c(OC)cc(O)c3c(=O)c2OC)ccc1O [TERNATIN]; inactive
Nc1nc(S)nc(C(=O)Nc2nccs2)c1-c1ccccc1; inactive
CN1CCN(/C(N)=C(\C#N)C(=O)Nc2ccc(Cl)cc2)CC1; inactive
N=C(N)N/N=C/c1c(-c2ccc(N)cc2)nc2sccn12; inactive

*Q* Dear all, I need the recorded test outcome for O=C1C2=C(SCCS2)C(=O)c2c(Sc3ccc(Cl)cc3)c(Sc3ccc(Cl)cc3)c(Sc3ccc(Cl)cc3)c(Sc3ccc(Cl)cc3)c21 , thank you.
*A* inactive

====

system: SK-MEL-2; assay: NCI tumour cell line growth inhibition, 48 h
Calls of active or inactive are those of the source. No stated cut-off is given here; in the data, active = GI50 up to about 1.1 µM and inactive = higher.
The categories you may choose from are 1 for active, -1 for inactive

Recorded results for 8 compounds are shown here.
CNC(=O)CCCNC(=O)CCCC(=O)N(C)C; -1
N#Cc1c(N)c2c(c(-c3ccccc3)c1-c1ccccc1)C(=O)N(NC(=S)Nc1ccccc1)C2=O; -1
CC[C@]1(Cc2ccc(OC)c(OC)c2)C=[N+]([O-])O[C@H](OC2CCCC2(c2ccccc2)c2ccccc2)[C@@H]1OC(=O)C(C)(C)C (stereo partly specified); -1
O=C1CSC(c2ccccc2O)N1c1ccc(-n2c(-c3ccccc3)nc3ccccc3c2=O)cc1 (stereo unspecified); -1
C=C1CC[C@@H](Br)C(C)(C)[C@]12CCC(C)(O)C(Cl)C2 (stereo partly specified); -1
O=C(O)CN(CC(=O)O)Cc1cc2c(cc1O)Oc1cc(O)c(CN(CC(=O)O)CC(=O)O)cc1C21OC(=O)c2ccccc21 [OFTASCEINE]; -1
CC(=O)OCC1OC(SC2=NC(=O)/C(=C/c3ccccc3)S2)C(OC(C)=O)C(OC(C)=O)C1OC(C)=O (stereo unspecified); -1
CC(=O)c1ccc(NC(=O)/C(Cc2ccccn2)=N/NC(=O)C[N+](C)(C)C)cc1; -1

*Q* Dear all, I need the recorded test outcome for CCCN(CCC)C(=O)c1nc(N)nc(-c2ccc(OC)cc2)c1-c1ccc(OC)cc1 , thank you.
*A* -1

*Q* Dear all, I need the recorded test outcome for O/N=C/c1ccc(O)c(O)c1 , thank you.
*A* -1

*Q* Dear all, I need the recorded test outcome for COC(=O)CCC(=O)C(C#N)c1ccc(Cl)cc1Cl (stereo unspecified) , thank you.
*A* -1

*Q* Dear all, I need the recorded test outcome for CCCCOCN/C(N)=N/C#N , thank you.
*A* -1

*Q* Dear all, I need the recorded test outcome for COc1cc(NCc2ccc3nc(-c4ccccc4)c(N)nc3c2)cc(OC)c1OC , thank you.
*A* -1

*Q* Dear all, I need the recorded test outcome for O=C(Cc1nc2ccccc2s1)Nc1cccc(C(F)(F)F)c1 , thank you.
*A* -1

*Q* Dear all, I need the recorded test outcome for C(/COc1cccnc1)=N\NC1=NCCN1 , thank you.
*A* -1

*Q* Dear all, I need the recorded test outcome for Cc1ccc(-c2ccc3c(c2)Sc2ccccc2O3)n1C , thank you.
*A* 1
